# SUBJECT OF TEST: Son of sevenless homolog 1 (Homo sapiens)
# TEST METHOD NOTES: Inhibition of SOS1 (unknown origin) at 500 nM
Here the recorded inhibition is given for each entry.
MEASURED ENDPOINT: inhibition (%)

- MOLECULE: "COc1cc2ncnc(NC(C)c3ccc(-c4ccccc4N)s3)c2cc1OC (racemic)"
  UNIT TEXT: "%"
  REPORTED VALUE: 75.2
- MOLECULE: "COc1cc2ncnc(NC(C)c3ccc(-c4ccccc4C(N)=O)s3)c2cc1OC (racemic)"
  UNIT TEXT: "%"
  REPORTED VALUE: 38.7
- MOLECULE: "COc1cc2ncnc(NC(C)c3cc(-c4ccccc4C(N)=O)cs3)c2cc1OC (racemic)"
  UNIT TEXT: "%"
  REPORTED VALUE: 33.7
- MOLECULE: "Cc1nc(NC(C)c2ccc(-c3ccccc3CNCCO)s2)c2cc3c(cc2n1)OCCO3 (racemic)"
  UNIT TEXT: "%"
  REPORTED VALUE: 89.1
- MOLECULE: "CNCc1ccccc1-c1ccc(C(C)Nc2ncnc3cc4c(cc23)OCCO4)s1 (racemic)"
  UNIT TEXT: "%"
  REPORTED VALUE: 75.9
- MOLECULE: "COc1cc2ncnc(NC(C)c3cc(-c4ccccc4O)cs3)c2cc1OC (racemic)"
  UNIT TEXT: "%"
  REPORTED VALUE: 65.7
- MOLECULE: "CC(Nc1ncnc2cc3c(cc12)OCCO3)c1ccc(-c2ccccc2CNCCO)s1 (racemic)"
  UNIT TEXT: "%"
  REPORTED VALUE: 79.4
- MOLECULE: "CNCc1ccccc1-c1ccc(C(C)Nc2nc(C)nc3cc4c(cc23)OCCO4)s1 (racemic)"
  UNIT TEXT: "%"
  REPORTED VALUE: 77.3
- MOLECULE: "CNCc1ccccc1-c1csc(C(C)Nc2ncnc3cc4c(cc23)OCCO4)c1 (racemic)"
  UNIT TEXT: "%"
  REPORTED VALUE: 78.5
- MOLECULE: "COc1cc2ncnc(NC(C)c3ccc(-c4ccccc4CNCCO)s3)c2cc1OC (racemic)"
  UNIT TEXT: "%"
  REPORTED VALUE: 99.1
- MOLECULE: "Cc1nc(NC(C)c2cc(-c3ccccc3CNCCO)cs2)c2cc3c(cc2n1)OCCO3 (racemic)"
  UNIT TEXT: "%"
  REPORTED VALUE: 85.1
- MOLECULE: "CNCc1ccccc1-c1ccc(C(C)Nc2ncnc3cc(OC)c(OC)cc23)s1 (racemic)"
  UNIT TEXT: "%"
  REPORTED VALUE: 98.7
- MOLECULE: "COc1cc2ncnc(NC(C)c3ccc(-c4ccccc4O)s3)c2cc1OC (racemic)"
  UNIT TEXT: "%"
  REPORTED VALUE: 43.9
- MOLECULE: "CNCc1ccccc1-c1csc(C(C)Nc2ncnc3cc(OC)c(OC)cc23)c1 (racemic)"
  UNIT TEXT: "%"
  REPORTED VALUE: 99
- MOLECULE: "CNCc1ccccc1-c1csc(C(C)Nc2nc(C)nc3cc4c(cc23)OCCO4)c1 (racemic)"
  UNIT TEXT: "%"
  REPORTED VALUE: 81.4
- MOLECULE: "COc1cc2ncnc(NC(C)c3cc(-c4ccccc4N)cs3)c2cc1OC (racemic)"
  UNIT TEXT: "%"
  REPORTED VALUE: 61
- MOLECULE: "CC(Nc1ncnc2cc3c(cc12)OCCO3)c1cc(-c2ccccc2CNCCO)cs1 (racemic)"
  UNIT TEXT: "%"
  REPORTED VALUE: 80.2
- MOLECULE: "COc1cc2ncnc(NC(C)c3cc(-c4ccccc4CNCCO)cs3)c2cc1OC (racemic)"
  UNIT TEXT: "%"
  REPORTED VALUE: 97.5
